// data source = ChEMBL document CHEMBL1201862

- Test system: DMS-273
- Test details: NCI tumour cell line growth inhibition, 48 h
Calls of active or inactive are those of the source. Rule as the data show it: active = GI50 up to about 1.1 µM and inactive = higher.
Quantity name: GI50

Before answering, review these 8 worked examples.
1) CCN1C(=O)C(=CN)C(=O)N(CC)C1=O; > 100 µM (inactive)
2) C1C[N+]23CCC[N+]2(C1)CCC3 (stereo not given); > 100 µM (inactive)
3) COC1OC(COS(=O)(=O)c2ccc(C)cc2)C(O)C(OS(=O)(=O)c2ccc(C)cc2)C1OS(=O)(=O)c1ccc(C)cc1 (stereo not given); > 100 µM (inactive)
4) O=C(c1ccccc1)[C@H]1Nc2ccc(Cl)cc2[C@H]2CCC[C@@H]12; 36.1 µM (inactive)
5) O=C(/C=N/c1ccccc1S)c1ccco1; 11.2 µM (inactive)
6) NS(=O)(=O)c1ccc(NC(=O)c2cccc3c(Nc4ccc(S(N)(=O)=O)cc4)c4ccccc4nc23)cc1; 1.85 µM (inactive)
7) O=C(O)C1=CCCc2ccc3ccccc3c21; > 100 µM (inactive)
8) CCCCNC(=O)CCN(C(=O)O)S(=O)(=O)c1ccc(NC(=O)c2ccccc2)cc1; 30.4 µM (inactive)

Entry COc1ccc(C2S/C(=C\c3ccc(OC)cc3OC)C(=O)N2NC(=O)Cc2ccccc2)cc1 (stereo not given) , GI50 reported as > 100 µM (inactive)

Value of GI50 reported for the compound CCCCCCCCCCCCCCCCCC(=O)OCC(CN(C)CCN(C)C)OC(=O)CCCCCCCCCCCCCCCCC (stereo not given) is > 100 µM (inactive)

* * *

- Tested on: HCT-116
- Test details: NCI tumour cell line growth inhibition, 48 h
Calls of active or inactive are those of the source. Cut-off read from the data, not from the text of the source: active = GI50 up to about 1.1 µM and inactive = higher.
Quantity name: GI50

1) O=C(/C=N/c1ccccc1S)c1ccco1; 3.15 µM (inactive)
2) C/C1=C\[C@H](C)C[C@H](C)OC(=O)[C@H](C)NC(=O)[C@@H](Cc2ccc(O)c(Br)c2)N(C)C(=O)[C@H](C)NC(=O)[C@@H](C)C1; 0.00382 µM (active)
3) CCN(CC)c1nc(N(C)C)c2cc(OC)ccc2n1; 11.2 µM (inactive)
4) O=C1/C(=C/c2ccc(Cl)cc2)CCC1CN1CCOCC1 (centres undefined); 4.2 µM (inactive)
5) O=C(O)C1CCCCN1c1ccccc1[N+](=O)[O-] (centres undefined); > 100 µM (inactive)

HCT-116 data for N=C(N)SCc1ccc(Cl)c2ccccc12.O=[N+]([O-])c1c(O)c(Cl)cc(Cl)c1Cl ; its GI50: 11.8 µM (inactive)

Record CC(=O)Oc1cc2c(c3ncccc13)OC(C)(C)C2 has HCT-116 GI50 equal to 13.4 µM (inactive)

The reported GI50 value, HCT-116, for COc1ccc(-c2nc(-c3ccc(OC)cc3)n(-c3ccccc3)n2)cc1 reads > 100 µM (inactive)

* * *

- Tested on: SK-OV-3
- Test details: NCI tumour cell line growth inhibition, 48 h
Active and inactive are the calls of the source. Rule as the data show it: active = GI50 up to about 1.1 µM and inactive = higher.
The reader will find reported GI50 values listed item by item below.

1) CCOc1ccccc1NC(=O)C(C#N)C1=C(Cl)C(=O)c2ccccc2C1=O (centres undefined); 26.2 µM (inactive)
2) O=C(CC(=O)N1N=C(N(c2ccccc2)c2ccccc2)CC1c1ccccc1)Nc1cccc(Cl)c1 (centres undefined); > 100 µM (inactive)
3) C=C1C(=O)O[C@H]2C1C[C@@H](OC(C)=O)/C(C)=C/CC[C@@]1(C)O[C@H]21 (some centres undefined); 26.9 µM (inactive)

Data point: COc1ccc(C2S/C(=C\c3ccc(OC)cc3OC)C(=O)N2NC(=O)Cc2ccccc2)cc1 (centres undefined) ; GI50 = > 100 µM (inactive)

* * *

- Tested on: SF-295
- Test details: NCI tumour cell line growth inhibition, 48 h
Activity calls are given as the source filed them. Cut-off read from the data, not from the text of the source: active = GI50 up to about 1.1 µM and inactive = higher.
Choose the fitting class; nothing outside active, inactive is accepted.

1) CCCCN1C(=O)CC2[C@@H]3CCc4cc(OC(C)=O)ccc4C3CC[C@]2(C)C1=O (some centres not stated); inactive
2) O=C(O)CNS(=O)(=O)c1ccc(NC(=O)c2cccc([N+](=O)[O-])c2)cc1; inactive
3) COc1ccc2c(c1O)-c1c(OC)c(OC)cc3c1[C@H](C2)[N+](C)(C)CC3; inactive

How was CC1CN(c2ccc(Cl)cc2)CC(C)OC(=O)O1 (configuration not stated) classified in this test?
inactive

Record request — test call for O=C1c2nn(-c3ccccc3)nc2C(c2ccccc2)N1c1ccccc1 (configuration not stated)
inactive

Called result for Cn1cc/c(=N\N=c2/ccn(C)c3ccccc23)c2ccccc21
inactive

Can you look up the reported call for O=C1/C(=C/c2ccc(Cl)cc2)CCC1CN1CCOCC1 (configuration not stated) for me?
inactive

Hey, what did the test say about O=c1ccn(COC(COCc2ccccc2)COCc2ccccc2)c(=O)[nH]1 ?
inactive

Query: recorded result category for CCc1cccc(C(C)CC)c1/N=C(/NC(=O)c1ccccc1C(=O)N/C(=N/c1c(CC)cccc1C(C)CC)SC)SC (configuration not stated) in this test
inactive

What was the test verdict on O=C1NC(=S)S/C1=C/c1ccco1 ?
inactive

# outcome recorded in this test, key = O=C=C=P(c1ccccc1)(c1ccccc1)c1ccccc1
inactive

What is the recorded call for this compound in the test? O=C(/C=C/c1ccccc1O)c1ccccc1Cl
inactive

Check the results log: what was the call for Nc1nc(N)c(-c2ccc(Cl)cc2)c(CCC(=O)Nc2cccc(C(F)(F)F)c2)n1 ?
inactive

// outcome(item) with item = Cc1ccc([S@+]([O-])c2occc2C=O)cc1
inactive

So what was the verdict on CN(CCNC(=O)c1cn(C)c2c1ccc1cc(Cl)c(Cl)cc12)CCNC(=O)c1cn(C)c2c1ccc1cc(Cl)c(Cl)cc12 in this test?
inactive

What classification did COc1cc2c(cc1OC)C1Cc3cc(OC)c(OC)cc3C(C2)N1C end up with in this test?
inactive

I would be grateful if you could indicate the recorded call for COc1ccc(N2C(=O)C3c4[nH]c5ccc(Br)cc5c4C4CCC(C(C)(C)C)CC4C3C2=O)cc1 (configuration not stated) .
inactive

# fetch the recorded call for CC(=O)N1c2ccccc2N(C(C)=O)C1c1ccc(C2N(C(C)=O)c3ccccc3N2C(C)=O)[nH]1 here
inactive

Identify the outcome logged in this assay for the compound shown: CN(C)C=[N+]=[N-]
inactive

Returns: the outcome recorded for COc1ccc2c(CCN)c(C(=O)O)[nH]c2c1 in this assay.
inactive

Outcome logged for CCCCCCCCCCCCCCCCCC(=O)OCC(CN(C)CCN(C)C)OC(=O)CCCCCCCCCCCCCCCCC (configuration not stated) in this assay:
inactive

* * *

- Test system: UO-31
- Test details: NCI tumour cell line growth inhibition, 48 h
Calls of active or inactive are those of the source. Cut-off read from the data, not from the text of the source: active = GI50 up to about 1.1 µM and inactive = higher.
Bench note: report the call from t (active), f (inactive)

Check out these entries, answers already filled in.
1. O=C1CCCC2=C1CC1=C(CCCC1=O)N2c1ccccc1; f
2. O=C1c2c(c(-c3ccccc3)c(-c3ccccc3)c(-c3ccccc3)c2-c2ccccc2)C(=O)N1c1cccc(Br)c1; f
3. CC(=O)OC1C[C@@H](C)C2(C[C@H](O)c3ccoc3)C(=O)OC[C@]13C2CCC(O)C31CO1 (some centres undefined); f
4. O=C1CCC2(c3ccc(Cl)cc3)Nc3cc(Cl)ccc3N12 (centres undefined); f
5. CC(=O)O[C@H]1CC[C@@]2(C)C(=CC[C@@H]3C2CC[C@]2(C)Nc4nc5ccccc5cc4CC32)C1 (some centres undefined); f

Any idea what this test logged for Cn1c(Sc2ccc(-c3cccnc3)n2C)ccc1-c1cccnc1 ?
f

Tell me the assay call for C/C(=C\c1ccccc1)C(O)S(=O)(=O)O (centres undefined) please.
f

Dear all, I need the recorded test outcome for COc1cccc(/C=C2\S/C(=N/Nc3nc(C)c(C)s3)NC2=O)c1O , thank you.
f

Call for entry COc1cc(/C=C/C(=O)Oc2ccc(NC(C)=O)cc2)ccc1C(=O)O/C=C/c1ccccc1 :
f

How did this test come out for CN(C)Cc1cc(/N=N/c2ccccc2)cc(CN(C)C)c1O ?
f

Could you check what this test reported for CC(C)c1[nH]nc(C(N)=O)c1/N=N/N(C)C ?
t

State the result this test recorded for COc1cc2c3c(c1OC)/C(=N/OS(=O)(=O)c1ccc(C)cc1)CC3N(S(=O)(=O)c1ccc(C)cc1)CC2 (centres undefined) .
f

Test call for this compound, please: NS(=O)(=O)c1ccc(NC(=O)c2cccc3c(Nc4ccc(S(N)(=O)=O)cc4)c4ccccc4nc23)cc1
f

Just curious, what result did O=C(O)C1CCCCN1c1ccccc1[N+](=O)[O-] (centres undefined) get here?
f

What classification did CN1C(OCc2ccccc2)c2c(ccc3c2OCO3)C2C=Cc3cc4c(cc3C21)OCO4 (centres undefined) end up with in this test?
f

What classification did CO[C@H]1[C@H](O)[C@H](O[C@H]2CC[C@@]3(C)[C@H](CC[C@@H]4[C@@H]3CC[C@]3(C)[C@@H](C5=CC(=O)OC5)CC[C@]43O)C2)O[C@@H](C)[C@@H]1O end up with in this test?
t
